Source listed as PubChem BioAssay (Tox21).

target: Retinoic acid receptor RXR-alpha (Homo sapiens) (UniProt P19793); assay: qHTS assay to identify small molecule agonists of the RXR signaling pathway (AID 1159527); details: HEK293T RXRa-UAS-bla, beta-lactamase ratio, 16 h; series mostly up to 76.8 µM; also: % is scaled to controls: 0 for no effect and ±100 for the full control effect; nearly all actives have a fitted effect of over 35% in size
Sequence (P19793 whole entry, looked up): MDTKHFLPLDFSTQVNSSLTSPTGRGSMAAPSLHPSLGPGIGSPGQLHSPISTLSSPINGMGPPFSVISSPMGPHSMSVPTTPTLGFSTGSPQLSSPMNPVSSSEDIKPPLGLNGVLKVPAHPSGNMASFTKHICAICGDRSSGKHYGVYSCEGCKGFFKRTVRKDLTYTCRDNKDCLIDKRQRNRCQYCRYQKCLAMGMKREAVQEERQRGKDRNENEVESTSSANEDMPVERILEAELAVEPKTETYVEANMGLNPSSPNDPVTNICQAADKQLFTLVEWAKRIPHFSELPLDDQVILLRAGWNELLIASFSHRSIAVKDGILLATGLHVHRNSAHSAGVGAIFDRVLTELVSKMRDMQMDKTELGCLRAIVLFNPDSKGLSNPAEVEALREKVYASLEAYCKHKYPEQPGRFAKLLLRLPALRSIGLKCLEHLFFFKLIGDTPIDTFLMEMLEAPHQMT
Records with an inconclusive call do not appear. Active and inactive are the calls of the source. Calls follow the shape of the full dose curve.
attribute-measured: activation

INSERT INTO measurements (compound, recorded_result) VALUES
  ('CCCCC1CCC(=O)O1 (stereo not given)', 'inactive'),
  ('O=c1oc2c(O)c(O)cc3c(=O)oc4c(O)c(O)cc1c4c23', '11.4% [at 15.8 µM] (inactive)'),
  ('NC(Cc1ccc(F)cc1)C(=O)O (stereo not given)', '12.3% [at 6.98 µM] (inactive)'),
  ('Cc1ccc(C(C)C)cc1O', 'inactive');

Now turn to the next compound.
API: value(readout=activation, system=Retinoic acid receptor RXR-alpha (Homo sapiens) (UniProt P19793)) for record CCOc1ccc(NC(N)=O)cc1
inactive

* * *

assay: qHTS assay for small molecule agonists of the p53 signaling pathway (AID 651631); settings: HCT-116 p53RE-bla reporter, beta-lactamase FRET ratio, 16 h; series mostly up to 73.3 µM; also: nearly all actives have a fitted effect of over 15% in size
Inconclusive results are not listed. Calls of active or inactive are those of the source. The call rests on the fitted dose curve.
# valid calls are y for active, n for inactive; nothing else

INSERT INTO results (molecule, label_value) VALUES
  ('CC(=O)Nc1ccc(C)c(Cl)c1', 'n'),
  ('OCc1c2ccccc2cc2ccccc12', 'n'),
  ('CC(C)CC(=O)OCc1ccccc1', 'n'),
  ('C1CSCCS1', 'n'),
  ('CS(=O)(=O)c1ccc([C@@H](O)[C@@H](CF)NC(=O)C(Cl)Cl)cc1', 'n'),
  ('CCC1(C)NC(=O)NC1=O (centres undefined)', 'n');

Which result was noted for this molecule in the test: CN1CCN(c2c(F)cc3c(=O)c(C(=O)O)cn4c3c2SCC4)CC1
n

Which result was noted for this molecule in the test: C1CCOC1
n

Which result was noted for this molecule in the test: CCCCCCCCCC#N
n

Which result was noted for this molecule in the test: CCCCc1ccc2nc(NC(=O)OC)[nH]c2c1
y

Which result was noted for this molecule in the test: O=C1N(c2ccccc2)c2ccccc2C1(Cc1ccncc1)Cc1ccncc1
n

* * *

molecular target: Estrogen receptor (Homo sapiens) (UniProt P03372); test: qHTS assay to identify small molecule agonists of the estrogen receptor alpha (ER-alpha) signaling pathway in the presence of an antagonist (AID 1259383); conditions: VM7Luc4E2 cells, ERE-luciferase, +ICI-182,780, 22 h; series mostly up to 92.4 µM; also: top concentration of the series differs between compounds; % is scaled to controls: 0 for no effect and ±100 for the full control effect; nearly all actives have a fitted effect of over 15% in size
Sequence (P03372 whole entry, looked up): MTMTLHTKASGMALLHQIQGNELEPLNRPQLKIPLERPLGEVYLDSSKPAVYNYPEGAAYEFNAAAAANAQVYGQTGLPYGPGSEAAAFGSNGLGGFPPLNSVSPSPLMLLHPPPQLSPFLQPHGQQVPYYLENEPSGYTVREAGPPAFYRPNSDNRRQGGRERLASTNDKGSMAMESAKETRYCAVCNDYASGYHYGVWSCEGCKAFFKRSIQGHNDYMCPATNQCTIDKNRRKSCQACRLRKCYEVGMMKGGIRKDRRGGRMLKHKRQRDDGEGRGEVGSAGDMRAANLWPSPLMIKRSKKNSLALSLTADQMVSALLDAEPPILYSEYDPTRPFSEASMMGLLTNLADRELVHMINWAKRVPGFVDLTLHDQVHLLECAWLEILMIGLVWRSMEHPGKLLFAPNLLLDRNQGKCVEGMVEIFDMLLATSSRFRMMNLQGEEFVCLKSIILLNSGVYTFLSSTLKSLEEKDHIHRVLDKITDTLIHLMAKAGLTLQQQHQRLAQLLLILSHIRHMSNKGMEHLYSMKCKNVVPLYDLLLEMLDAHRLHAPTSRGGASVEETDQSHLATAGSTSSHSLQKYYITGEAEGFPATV
Activity calls are given as the source filed them. Calls come from the whole dose curve.
attribute-measured: activation

Reference set (10 entries):
INSERT INTO measurements (compound, recorded_result) VALUES
  ('CCCCC1CCC(=O)O1 (centres undefined)', 'inactive'),
  ('CC/C=C\CCOC(=O)C(C)C', 'inactive'),
  ('Cc1ccsc1C(=CCCN1CCC[C@@H](C(=O)O)C1)c1sccc1C', 'inactive'),
  ('CC(C)CC(=O)OCc1ccccc1', 'inactive'),
  ('CO[Si](C)(C)OC', 'inactive'),
  ('O=c1oc2c(O)c(O)cc3c(=O)oc4c(O)c(O)cc1c4c23', '-0.711% [at 19 µM] (inactive)'),
  ('CCCCNc1ccc(C(=O)OCCN(CC)CC)cc1', 'inactive'),
  ('CC(C)C(=O)OCC(C)(C)C(O)C(C)C (centres undefined)', 'inactive'),
  ('CN1CCN(N)CC1', 'inactive'),
  ('Cc1c[nH]c(=S)[nH]c1=O', 'inactive');

Quick one: activation for COc1ccccc1OCC(O)COC(N)=O (centres undefined) ?
inactive

Quick one: activation for O=C(O)c1cccc(Cl)c1Cl ?
inactive

Quick one: activation for CC(=O)OC1C2(C)CCC(C2)C1(C)C (centres undefined) ?
inactive

Quick one: activation for CCOC(=O)COc1ccc2c(c1)CC(NCC(O)c1cccc(Cl)c1)CC2 (centres undefined) ?
inactive

* * *

experiment: A CellTox Green Cytotoxicity Assay to monitor cytotoxicity in HEK293 cells - 40 hour (AID 1224871); conditions: CellTox Green fluorescence; series mostly up to 76.8 µM; also: % is scaled to controls: 0 for no effect and ±100 for the full control effect; nearly all actives have a fitted effect of over 45% in size
Records with an inconclusive call do not appear. Calls of active or inactive are those of the source. Calls follow the shape of the dose curve; as a rule, active = well fitted activation curve with a large enough effect in the repeat runs; inconclusive = weak or mixed curves; inactive = flat fitted curve, though single readings scatter.
# valid calls are active, inactive; nothing else

Known results for compounds:
INSERT INTO assay_data (compound, label_value) VALUES
  ('COC(=O)c1ccc(OC)cc1', 'inactive'),
  ('CC1(C)S[C@@H]2[C@H](NC(=O)C(C(=O)O)c3ccccc3)C(=O)N2[C@H]1C(=O)O (some centres undefined)', 'inactive'),
  ('Cc1nc(N)nc(N)c1-c1ccc(Cl)c(Cl)c1', 'inactive'),
  ('OC[C@H]1O[C@@H](O[C@H]2[C@H](O)[C@@H](O)[C@H](O)O[C@@H]2CO)[C@H](O)[C@@H](O)[C@H]1O', 'inactive'),
  ('CN1[C@@H]2CC[C@H]1CC(OC(=O)c1c[nH]c3ccccc13)C2 (some centres undefined)', 'inactive'),
  ('CS(=O)(=O)c1ccc([C@@H](O)[C@@H](CF)NC(=O)C(Cl)Cl)cc1', 'inactive'),
  ('Cc1ccc(C)c(N)c1', 'inactive'),
  ('COC(C)CCO (centres undefined)', 'inactive'),
  ('CN1CCN(c2c(F)cc3c(=O)c(C(=O)O)cn4c3c2SCC4)CC1', 'inactive'),
  ('C/C(=N\O)[C@@H](C)NCC(C)(C)CN[C@H](C)/C(C)=N/O', 'inactive');

Which result was noted for this compound in the test: Cc1c(N)cccc1N
inactive

Which result was noted for this compound in the test: CN1CCN(N)CC1
inactive

Which result was noted for this compound in the test: C=O
inactive

Which result was noted for this compound in the test: CCN[C@H]1CN(CCCOC)S(=O)(=O)c2sc(S(N)(=O)=O)cc21
inactive

Which result was noted for this compound in the test: C=C(C)C(=O)OCCOP(=O)(O)O
inactive

Which result was noted for this compound in the test: COc1ccccc1OCC(O)COC(N)=O (centres undefined)
inactive

* * *

assay: qHTS assay to identify small molecule agonists of the constitutive androstane receptor (CAR) signaling pathway - cell viability counter screen (AID 1224836); settings: HepG2-CYP2B6-hCAR viability, CellTiter-Fluor, 23 h, PK11195 added to every well; series mostly up to 92.4 µM; also: % is scaled to controls: 0 for no effect and ±100 for the full control effect; nearly all actives have a fitted effect of over 45% in size
Results filed as inconclusive are left out. Calls of active or inactive are those of the source. Calls come from the whole dose curve; as a rule, active = well fitted cell-killing curve with a large enough effect in the repeat runs; inconclusive = weak or mixed curves, or effect the other way; inactive = flat fitted curve, though single readings scatter.
attribute-measured: viability change, negative = cytotoxic

INSERT INTO measurements (compound, recorded_result) VALUES
  ('CCOc1ccc(NS(=O)(=O)c2ccc(N)cc2)nn1', 'inactive'),
  ('C=Cc1ccccc1', 'inactive'),
  ('Cc1ccsc1C(=CCCN1CCC[C@@H](C(=O)O)C1)c1sccc1C', 'inactive'),
  ('O=c1[nH]cnc2c1ncn2[C@@H]1O[C@H](CO)[C@@H](O)[C@H]1O', 'inactive'),
  ('O=C1C=CC(=O)O1', 'inactive');

Now turn to the next compound.
Quick one: viability change, negative = cytotoxic for CN1CCN(N)CC1 ?
inactive

* * *

Experiment: qHTS assay to identify small molecule antagonists of the estrogen related receptor signaling pathway with the pleiotropic PPARgamma coactivator (PGC) from Tox21 10K library - cell viability counter screen (AID 1224840); also: % is scaled to controls: 0 for no effect and ±100 for the full control effect; nearly all actives have a fitted effect of over 40% in size
Conditions: PGC/ERR reporter cells viability, CellTiter-Fluor, 17.5 h; series mostly up to 92.4 µM
Description: National Center for Advancing Translational Sciences [NCATS] NIH Chemical Genomics Center [NCGC] U.S. Environmental Protection Agency [EPA] National Institutes of Environmental Health Sciences [NIEHS] National Toxicology Program [NTP] […] The PGC/ERR cells were dispensed at 2,000 cells/5 ul/well in 1536-well white plates using a Multidrop dispenser. […] After 30-minute incubation at 37 C/5% CO2, the fluorescence intensity in the plates was measured using a ViewLux plate reader.
Results filed as inconclusive are left out. The source made the active and inactive calls. Calls come from the whole dose curve; as a rule, active = well fitted cell-killing curve with a large enough effect in the repeat runs (not every such curve was filed as active); inconclusive = weak or mixed curves, or effect the other way; inactive = no such curve, though single readings can be large or run the other way.
attribute-measured: viability change, negative = cytotoxic

Reference set (7 entries):
INSERT INTO assay_data (compound, recorded_result) VALUES
  ('COc1ccc2nc(NC(=O)Nc3ccccc3)sc2c1', 'inactive'),
  ('CN1CCN(c2c(F)cc3c(=O)c(C(=O)O)cn(CCF)c3c2F)CC1', 'inactive'),
  ('NCCCN1CCN(CCCN)CC1', 'inactive'),
  ('C[C@]12CCC(=O)C=C1CC[C@@H]1[C@@H]2CC[C@@]2(C)[C@H]1CC[C@]2(O)C(=O)CO', 'inactive'),
  ('C[C@@H](N)C(=O)O', 'inactive'),
  ('CC(C)NCC(O)COc1ccc(CCOCC2CC2)cc1 (stereo not drawn)', 'inactive'),
  ('C=CCCC=C', 'inactive');

Now turn to the next compound.
Quick one: viability change, negative = cytotoxic for CCCCCCCCCC#N ?
inactive
